- Test system: HepG2 cells
- Protocol summary: Mitochondrial membrane potential (MITO-ID MP detection Kit)
- Type: cell-based
- Details: Homo sapiens, 168 h, 50 uM, 7 days, read-out: % decrease in Mitochondrial Membrane Potential
# key: entry, value: inhibition at 50 µM

Consider the reported inhibition at 50 µM for these compounds:
- Compound: "C[C@@H](O)CC(=O)SCCNC(=O)CCNC(=O)[C@H](O)C(C)(C)CO [Compound 38]"
  Target desc: "HepG2 cells"
  inhibition at 50 µM: "> 30%"
- Compound: "CC(C)(COC(=O)CCC(=O)O)[C@@H](O)C(=O)NCCC(=O)NCCS [Compound 1310]"
  Target desc: "HepG2 cells"
  inhibition at 50 µM: "> 30%"
- Compound: "C[C@H](O)CC(=O)SCCNC(=O)CCNC(=O)[C@H](O)C(C)(C)CO [Compound 1246]"
  Target desc: "HepG2 cells"
  inhibition at 50 µM: "> 50%"

Now for a further compound.
Lab request: please report inhibition at 50 µM under test system HepG2 cells for COC(=O)C(C)C(=O)SCCNC(=O)CCNC(=O)[C@H](O)C(C)(C)CO (stereo partly shown) [Compound 405]
> 50%
